# Tested on: E. faecium T62764 (VRE)
# run.description: microbe, parasite or virus in culture
# conditions.used: T62764 (VRE)
Square brackets hold non-standard residues; d marks the D form. Peptide text beside a SMILES is read from it. Nspe = C[C@H](NCC(=O)O)c1ccccc1; Nlys = NCCCCNCC(=O)O
parameter.measured: MIC (µg/mL)

molecule="C[C@@H](c1ccccc1)N(CC(N)=O)C(=O)CN(C(=O)CN(CCCCN)C(=O)[C@@H]1CCCN1C(=O)CN(C(=O)CN(CCCCN)C(=O)CN(C(=O)CN(C(=O)CN(CCCCN)C(=O)CN(C(=O)CN(C(=O)CNCCCCN)[C@@H](C)c1ccccc1)[C@@H](C)c1ccccc1)[C@@H](C)c1ccccc1)[C@@H](C)c1ccccc1)[C@@H](C)c1ccccc1)[C@@H](C)c1ccccc1 [Peptoid 1-Pro9] (H-[Nlys][Nspe][Nspe][Nlys][Nspe][Nspe][Nlys][Nspe]P[Nlys][Nspe][Nspe]-NH2)" reported=2

###

# System: P. aeruginosa 9 (MDR)
# run.description: microbe, parasite or virus in culture
# conditions.used: 9 (MDR)
# Protocol: The MICs of test agents were measured using a modified broth micro-dilution method in Difco Mueller Hinton medium, on a panel of bacterial pathogens that were both susceptible and resistant to common antibiotics (S1 File). Briefly, serial dilutions were performed in 0.01% acetic acid containing 0.2% bovine serum albumin at 10-fold the desired final concentration. […]
Square brackets hold non-standard residues; d marks the D form. Peptide text beside a SMILES is read from it. Nspe = C[C@H](NCC(=O)O)c1ccccc1; Nlys = NCCCCNCC(=O)O
parameter.measured: MIC (µg/mL)

molecule="C[C@@H](c1ccccc1)N(CC(N)=O)C(=O)CN(C(=O)CN(CCCCN)C(=O)[C@@H]1CCCN1C(=O)CN(C(=O)CN(CCCCN)C(=O)CN(C(=O)CN(C(=O)CN(CCCCN)C(=O)CN(C(=O)CN(C(=O)CNCCCCN)[C@@H](C)c1ccccc1)[C@@H](C)c1ccccc1)[C@@H](C)c1ccccc1)[C@@H](C)c1ccccc1)[C@@H](C)c1ccccc1)[C@@H](C)c1ccccc1 [Peptoid 1-Pro9] (H-[Nlys][Nspe][Nspe][Nlys][Nspe][Nspe][Nlys][Nspe]P[Nlys][Nspe][Nspe]-NH2)" test_system="P. aeruginosa 9 (MDR)" result_units=µg/mL reported=256

###

# test.system: LPS (P. aeruginosa)
# run.description: Dansyl polymyxin B (DPX) displacement assay, LPS binding
# conditions.used: DPX bound to P. aeruginosa LPS; read-out: I50 (concentration that displaces 50% of LPS-bound DPX)
pIC50: −log10 of the molar value. Ends that are not written are not given here.
parameter.measured: pIC50

substance="GIGKFLKKAKKFGKAFVKILKK-NH2 (C-terminus assumed) [MSI-78, pexiganan, reference compound]" test_system="LPS (P. aeruginosa)" reported=5.85
substance="ILRWPWWPWRRK-NH2 (C-terminus assumed) [MX-226, Omiganan, reference compound]" test_system="LPS (P. aeruginosa)" reported=5.30

###

# Test system: E. faecalis ATCC29212
# run.description: microbe, parasite or virus in culture
# conditions.used: ATCC29212
Numbered stars: 1 amine (or outer) side, 2 acyl side, 3 side chain; on linkers, the order of the positions; unused ones are H or OH. Square brackets hold non-standard residues; d marks the D form. Peptide text beside a SMILES is read from it. X1 = CC(C)[C@H](C)N(CC(=O)[*:2])[*:1]; Nspe = C[C@H](NCC(=O)O)c1ccccc1; Nlys = NCCCCNCC(=O)O
List of MIC values.
parameter.measured: MIC

compound=C[C@@H](c1ccccc1)N(CC(N)=O)C(=O)CN(Cc1ccccc1)C(=O)CN(CCCCN)C(=O)CN(Cc1ccccc1)C(=O)CN(Cc1ccccc1)C(=O)CN(CCCCN)C(=O)CN(Cc1ccccc1)C(=O)CN(Cc1ccccc1)C(=O)CN(CCCCN)C(=O)CN(Cc1ccccc1)C(=O)CN(Cc1ccccc1)C(=O)CNCCCCN reported="8 µg/mL"
compound=C[C@@H](c1ccccc1)N(CC(N)=O)C(=O)CN(C(=O)CN(CCCCN)C(=O)CN(Cc1ccccc1)C(=O)CN(Cc1ccccc1)C(=O)CN(CCCCN)C(=O)CN(C(=O)CN(C(=O)CN(CCCCN)C(=O)CN(Cc1ccccc1)C(=O)CN(Cc1ccccc1)C(=O)CNCCCCN)[C@@H](C)c1ccccc1)[C@@H](C)c1ccccc1)[C@@H](C)c1ccccc1 reported="4 µg/mL"
compound="CC(C)[C@H](C)N(CC(=O)N(CCCCN)CC(=O)N(CC(=O)N(CC(=O)N(CCCCN)CC(=O)N(CC(=O)N(CC(=O)N(CCCCN)CC(=O)N(CC(=O)N(CC(N)=O)[C@@H](C)c1ccccc1)[C@@H](C)c1ccccc1)[C@@H](C)C(C)C)[C@@H](C)C(C)C)[C@@H](C)c1ccccc1)[C@@H](C)c1ccccc1)C(=O)CN(C(=O)CNCCCCN)[C@@H](C)C(C)C [1-Nsdp2,3,8,9, H-(NLys-Nsdp-Nsdp-NLys-Nspe-Nspe)2-NH2] (H-[Nlys][X1][X1][Nlys][Nspe][Nspe][Nlys][X1][X1][Nlys][Nspe][Nspe]-NH2)" reported="4 µg/mL"
